tested on: SK-MEL-5 melanoma; assay: NCI-60 one-dose screen, 48 h; conditions: 10 µM unless noted
The panel holds about 83,000 compounds, 20% with a hit somewhere; the sample as a whole holds those more often. The source made the active and inactive calls. How the source made its calls: active means growth percent below 10; inactive means the rest.
Please answer using one outcome listed in Y = active, N = inactive

Examples with answers:
1. COC(=O)[C@@H](C)C[C@H](Cc1ccccc1)NC(=O)c1csc([C@@H](C[C@H](C(C)C)N(C)C(=O)[C@@H](NC(=O)[C@H]2CCCCN2C)c2ccc(F)cc2)OC(C)=O)n1 ... Y
2. COC(=O)C1OC(Oc2ccc(N(CCCl)CCCl)cc2)C(OC(C)=O)C(OC(C)=O)C1OC(C)=O (centres undefined) ... N
3. [Cl][Hg][c]1cc[c]([Hg][Cl])o1 ... N
4. CCCCCCCCC(CO)NCCc1ccccc1 (centres undefined) ... N
5. NC(=Nc1ccccc1)N[N+](=O)[O-] ... N

Query: Recorded test call requested for `Cn1cc(-c2csc(-c3cn(CCN4CCOCC4)c4ccccc34)n2)c2cccnc21`
Result: N

Query: Outcome? `Cc1c2cc(Cl)c3ccccc3c2c[n+]2ccccc12`
Result: Y

Query: How did this test come out for `N/C(=N/N=C/c1ccncc1)N[N+](=O)[O-]` ?
Result: N

====

system: MDA-MB-435 melanoma; experiment: NCI-60 one-dose screen, 48 h; settings: 10 µM unless noted
Compounds without any hit were thinned out: in the full panel of roughly 83,000, 20% have a hit. Activity calls are given as the source filed them. Rule for the calls: active = growth percent below 10; inactive = the rest.
Lab note: assign the record to one of active, inactive

1. COc1ccc(C2=CC(c3ccc(OC)c(OC)c3)c3c(c4ccccc4oc3=O)O2)cc1OC (centres undefined) ... active
2. CN(C)C(=O)Oc1ccc(Br)cc1 ... inactive
3. CCC(C)(C)[C@H](NC(=O)[C@H]1CCCCN1C)C(=O)N(C)[C@H](C[C@@H](OC(C)=O)c1nc(C(=O)N[C@@H](Cc2ccccc2)C[C@H](C)C(=O)O)cs1)C(C)C ... active
4. C[C@@]12CC=C3c4nc(Nc5cccc(O)c5)sc4CC[C@]3(C)[C@H]1CC[C@]1(C)C(=O)CC[C@@H]21 ... inactive
5. CC12CCC(O)CC1=CCC1C2CCC2(C)C(O)CCC12 (centres undefined) ... inactive

Query: Entry `[Cl][Hg][n]1c(-c2ccco2)nc2ccccc21` : call = ?
Result: inactive

Query: For `O=[N+]([O-])c1cc(I)cc([N+](=O)[O-])c1` , what call appears in the results of this test?
Result: inactive

Query: Which outcome was assigned to `C/C1=C/C(=O)O[C@@H]2C[C@@H](CC[C@H](C)/C=C\C=C\CC1)O[C@@](O)([C@@H]1CSC(=O)N1CO)C2` in this test?
Result: inactive

Query: Please share the test call associated with N#CC1(C#N)C(c2ccc(N(CCCl)CCCl)cc2)OC23CCCCC2C1(C#N)C(=N)O3 (centres undefined) .
Result: inactive

Query: Short answer needed: outcome of this test for `CC(=O)O[C@H]1CC[C@H]2[C@@H]3CC=C4c5nc(-c6ccccc6)sc5CC[C@]4(C)[C@H]3CC[C@]12C` ?
Result: inactive

Query: Could you check what this test reported for `COC(=O)[C@@H](C)C[C@H](Cc1ccc(F)cc1)NC(=O)c1csc([C@@H](C[C@H](C(C)C)N(C)C(=O)[C@@H](NC(=O)[C@H]2CCCCN2C)C(C)C)OC(C)=O)n1` ?
Result: active

Query: // param item: O=P1(NCCCl)OCCCN1CCCl (centres undefined) ; yields the recorded call
Result: inactive

Query: # lookup: test call for `O=C(N/N=C/c1ccc(N(CCCl)CCCl)cc1)c1cccc2ccccc12`
Result: inactive

Query: Test call for this compound, please: `Clc1cccc(NCOOC2(OOCNc3cccc(Cl)c3)CCCCC2)c1`
Result: inactive

Query: Would you mind telling me which call this test gave `COC(=O)CCc1c[nH]c2ccc(N(CCCl)CCCl)cc12` ?
Result: inactive

Query: Answer briefly: the call reported for `CCCCC1(CCC)C(=O)NC(=S)NC1=O` in this assay.
Result: inactive

Query: What call does the record list for `COC[C@@H]1C[C@@]2(C)[C@@H](CC[C@@H]3[C@@H]2CC[C@@]2(C)[C@H]3CC[C@]2(C)O)CC1=O` ?
Result: inactive

Query: Dear colleague, could you share the recorded outcome for `Clc1ccc(CO/N=C(\Cn2ccnc2)c2ccc(Cl)cc2Cl)c(Cl)c1` when you have a moment?
Result: active

Query: What call does the record list for `O=C1NC(=O)C(=Cc2ccc(OCCCCC3CCCCC3)c(Cl)c2)C(=O)N1` ?
Result: inactive
